These data points were gathered from ChEMBL document CHEMBL1921749.

system_tested: Arachidonate 5-lipoxygenase-activating protein (Homo sapiens, UniProt P20292)
Sequence (P20292 whole entry): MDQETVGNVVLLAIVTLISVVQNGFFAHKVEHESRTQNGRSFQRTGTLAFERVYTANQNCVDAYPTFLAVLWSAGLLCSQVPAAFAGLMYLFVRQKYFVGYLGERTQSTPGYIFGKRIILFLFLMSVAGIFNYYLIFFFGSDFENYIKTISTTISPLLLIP
assay_name: Inhibition of FLAP in human peripheral leukocytes assessed as inhibition of calcium ionophore A23187-induced LTB4 production after 3 hr by ELISA in presence of 0.5% human serum albumin
Type: cell-based
Recorded pIC50 by entry
Just the number, please; pIC50 means minus log10 of the concentration in mol/L.

See these solved cases before continuing.
>>> df
                                   molecule  attribute_measured  recorded_measurement
0  COc1ccc(-c2ccc(Cn3c(CC(C)(C)C(=O)O)c(SC(C)(C)C)c4cc(OCc5ccccn5)ccc43)cc2)cn1               pIC50                  7.85
1  CC(C)c1ccc2c(c1)c(SC(C)(C)C)c(CC(C)(C)C(=O)O)n2Cc1ccc(Cl)cc1               pIC50                  7.57

Data request: Which value of pIC50 has been reported for CCOc1ccc(-c2ccc(Cn3c(CC(C)(C)C(=O)O)c(SC(C)(C)C)c4cc(OCc5ccc(C)cn5)ccc43)cc2)cn1 in the records?
Data returned: 8.40

Data request: Try CC(C)(C)Sc1c(CC(C)(C)C(=O)O)n(Cc2ccc(Cl)cc2)c2ccc(OCc3ccc4ccccc4n3)cc12 [QUIFLAPON SODIUM] next.
Data returned: 7.92

====

system_tested: Arachidonate 5-lipoxygenase-activating protein (Homo sapiens, UniProt P20292)
Sequence (P20292 whole entry): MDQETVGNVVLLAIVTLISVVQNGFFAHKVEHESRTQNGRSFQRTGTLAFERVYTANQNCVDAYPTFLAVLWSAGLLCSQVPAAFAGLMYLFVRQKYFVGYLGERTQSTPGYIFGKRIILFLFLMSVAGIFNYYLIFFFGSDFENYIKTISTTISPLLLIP
assay_name: Inhibition of FLAP in human whole blood assessed as inhibition of calcium ionophore A23187-induced LTB4 production preincubated for 11 hrs by ELISA
attribute_measured: pIC50
Just the number, please; pIC50 means minus log10 of the concentration in mol/L.

>>> df
                                   molecule  recorded_measurement
0  CC(C)c1ccc2c(c1)c(SC(C)(C)C)c(CC(C)(C)C(=O)O)n2Cc1ccc(Cl)cc1                  6.00

Turning to the following molecule.
Data request: Which value of pIC50 has been reported for CC(C)(C)Sc1c(CC(C)(C)C(=O)O)n(Cc2ccc(Cl)cc2)c2ccc(OCc3ccc4ccccc4n3)cc12 [QUIFLAPON SODIUM] in the records?
Data returned: 7.10

====

Recorded pIC50 by entry
system_tested: Arachidonate 5-lipoxygenase-activating protein (Homo sapiens)
assay_name: Displacement of [3H]-3-[5-(pyrid-2-ylmethoxy)-3-tert-butylthio-1-benzylindol-2-yl]-2,2-dimethylpropionic acid from FLAP in human polymorphonuclear cell membranes after 1 hr by scintillation counting
Just the number, please; pIC50 means minus log10 of the concentration in mol/L.

In [3]: df
Out[3]:
                                smiles_data  recorded_measurement
0  Cc1ccc(COc2ccc3c(c2)c(SC(C)(C)C)c(CC(C)(C)C(=O)O)n3Cc2ccc(-c3ccc(C(F)(F)F)cn3)cc2)nc1                  8.57
1  Cc1ccc(COc2ccc3c(c2)c(SC(C)(C)C)c(CC(C)(C)C(=O)O)n3Cc2ccc(-c3cncc(F)c3)cc2)nc1                  8.68
2  Cc1ccc(COc2ccc3c(c2)c(SC(C)(C)C)c(CC(C)(C)C(=O)O)n3Cc2ccc(-c3ccccn3)cc2)nc1                  8.89

Turning to the following compound.
Data request: Which value of pIC50 has been reported for CCc1ccc(COc2ccc3c(c2)c(SC(C)(C)C)c(CC(C)(C)C(=O)O)n3Cc2ccc(-c3ccc(OC)nc3)cc2)nc1 in the records?
Data returned: 8.00

====

system_tested: Cytochrome P450 2D6 (Homo sapiens, UniProt P10635)
Sequence (P10635 whole entry): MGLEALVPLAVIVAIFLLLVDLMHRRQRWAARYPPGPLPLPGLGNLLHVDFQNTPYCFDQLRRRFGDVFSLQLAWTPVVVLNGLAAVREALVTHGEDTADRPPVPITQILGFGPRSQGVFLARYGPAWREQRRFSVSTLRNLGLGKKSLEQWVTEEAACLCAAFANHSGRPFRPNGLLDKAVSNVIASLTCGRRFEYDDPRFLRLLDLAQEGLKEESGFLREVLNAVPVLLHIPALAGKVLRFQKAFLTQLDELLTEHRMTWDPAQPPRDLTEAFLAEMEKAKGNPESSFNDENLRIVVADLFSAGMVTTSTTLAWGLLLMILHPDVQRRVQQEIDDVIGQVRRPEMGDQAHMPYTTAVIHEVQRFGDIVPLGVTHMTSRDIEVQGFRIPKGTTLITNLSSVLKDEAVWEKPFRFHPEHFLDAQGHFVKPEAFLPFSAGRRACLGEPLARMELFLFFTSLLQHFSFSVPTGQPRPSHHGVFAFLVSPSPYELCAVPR
assay_name: Inhibition of human CYP2D6
Type: ADME
attribute_measured: IC50

>>> df
                                   compound  recorded_measurement
0  CCOc1ccc(-c2ccc(Cn3c(CC(C)(C)C(=O)O)c(SC(C)(C)C)c4cc(OCc5ccc(C)cn5)ccc43)cc2)cn1 [FIBOFLAPON]               > 40 µM

Turning to the following compound.
Data request: Return IC50 measured with Cytochrome P450 2D6 (Homo sapiens, UniProt P10635) given this compound: Cc1ccc(COc2ccc3c(c2)c(SC(C)(C)C)c(CC(C)(C)C(=O)O)n3Cc2ccc(-c3ccc(C)cn3)cc2)nc1
Data returned: > 50 µM

====

Target chain: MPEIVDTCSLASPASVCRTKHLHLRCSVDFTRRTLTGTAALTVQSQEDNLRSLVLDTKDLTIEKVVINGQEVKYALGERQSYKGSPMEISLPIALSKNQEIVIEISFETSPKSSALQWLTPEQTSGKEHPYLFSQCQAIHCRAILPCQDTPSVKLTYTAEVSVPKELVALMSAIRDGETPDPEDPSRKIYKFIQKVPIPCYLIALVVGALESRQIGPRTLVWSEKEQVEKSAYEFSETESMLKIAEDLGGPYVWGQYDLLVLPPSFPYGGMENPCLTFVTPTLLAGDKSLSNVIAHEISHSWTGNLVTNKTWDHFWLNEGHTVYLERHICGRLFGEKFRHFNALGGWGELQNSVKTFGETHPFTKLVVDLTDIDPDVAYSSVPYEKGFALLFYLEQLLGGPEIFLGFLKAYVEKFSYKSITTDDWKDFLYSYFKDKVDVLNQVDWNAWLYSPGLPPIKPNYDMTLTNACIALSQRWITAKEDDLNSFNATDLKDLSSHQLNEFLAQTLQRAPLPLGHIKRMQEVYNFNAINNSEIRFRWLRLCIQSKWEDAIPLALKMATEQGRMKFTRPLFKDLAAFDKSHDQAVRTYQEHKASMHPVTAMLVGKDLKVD
attribute_measured: IC50

Data request: Which value of IC50 has been reported for CCOc1ccc(-c2ccc(Cn3c(CC(C)(C)C(=O)O)c(SC(C)(C)C)c4cc(OCc5ccc(C)cn5)ccc43)cc2)cn1 in the records?
Data returned: > 100 µM

====

Recorded inhibition by entry
system_tested: Prostaglandin G/H synthase 1 (Homo sapiens, UniProt P23219)
Sequence (P23219 whole entry): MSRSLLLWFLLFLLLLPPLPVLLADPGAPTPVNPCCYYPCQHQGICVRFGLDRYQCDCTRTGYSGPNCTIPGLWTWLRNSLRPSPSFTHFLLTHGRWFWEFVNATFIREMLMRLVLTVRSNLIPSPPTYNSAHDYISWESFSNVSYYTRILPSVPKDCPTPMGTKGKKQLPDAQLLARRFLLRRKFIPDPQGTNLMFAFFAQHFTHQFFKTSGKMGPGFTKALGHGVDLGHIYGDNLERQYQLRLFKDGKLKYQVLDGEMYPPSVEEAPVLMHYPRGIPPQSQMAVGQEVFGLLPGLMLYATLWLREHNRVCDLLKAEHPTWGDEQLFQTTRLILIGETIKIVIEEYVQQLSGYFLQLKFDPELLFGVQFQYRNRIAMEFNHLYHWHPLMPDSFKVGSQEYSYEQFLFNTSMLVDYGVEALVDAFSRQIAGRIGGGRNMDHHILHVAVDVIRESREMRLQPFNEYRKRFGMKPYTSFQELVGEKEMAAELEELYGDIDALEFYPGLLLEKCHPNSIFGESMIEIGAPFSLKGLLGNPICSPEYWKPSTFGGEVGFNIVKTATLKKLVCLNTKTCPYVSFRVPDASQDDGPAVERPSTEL
assay_name: Inhibition of COX1-mediated TXB2 production in human whole blood at 10 uM after 30 mins by competitive enzyme immunoassay
Lab book: enter the figure in %, no units written.

Data request: Which value of inhibition has been reported for Cc1ccc(COc2ccc3c(c2)c(SC(C)(C)C)c(CC(C)(C)C(=O)O)n3Cc2ccc(-c3cccnc3)cc2)nc1 in the records?
Data returned: 97

Data request: Try COc1cccc(-c2ccc(Cn3c(CC(C)(C)C(=O)O)c(SC(C)(C)C)c4cc(OCc5ccc(C)cn5)ccc43)cc2)n1 next.
Data returned: 81

====

Recorded pIC50 by entry
system_tested: Arachidonate 5-lipoxygenase-activating protein (Homo sapiens, UniProt P20292)
assay_name: Inhibition of FLAP in human whole blood assessed as inhibition of calcium ionophore A23187-induced LTB4 production preincubated for 5 hrs by ELISA
Just the number, please; pIC50 means minus log10 of the concentration in mol/L.

>>> print(df.to_string())
                                   compound  attribute_measured  recorded_measurement
0  CCOc1ccc(-c2ccc(Cn3c(CC(C)(C)C(=O)O)c(SC(C)(C)C)c4cc(OCc5ccc(C)cn5)ccc43)cc2)cn1 [FIBOFLAPON]               pIC50                  7.12

Data request: Which value of pIC50 has been reported for COc1ccc(-c2ccc(Cn3c(CC(C)(C)C(=O)O)c(SC(C)(C)C)c4cc(OCc5ccc6cc(F)ccc6n5)ccc43)cc2)cn1 in the records?
Data returned: 6.54

Data request: Try COc1ccc(-c2ccc(Cn3c(CC(C)(C)C(=O)O)c(SC(C)(C)C)c4cc(OCc5ccc(C)cn5)ccc43)cc2)cn1 next.
Data returned: 7.06

Data request: Try COc1ccc(-c2ccc(Cn3c(CC(C)(C)C(=O)O)c(SC(C)(C)C)c4cc(OCc5cccc(C)n5)ccc43)cc2)cn1 next.
Data returned: 6.44

Data request: Try Cc1ccc(COc2ccc3c(c2)c(SC(C)(C)C)c(CC(C)(C)C(=O)O)n3Cc2ccc(-c3ccc(=O)[nH]c3)cc2)nc1 next.
Data returned: 5.89

Data request: Try Cc1ccc(COc2ccc3c(c2)c(SC(C)(C)C)c(CC(C)(C)C(=O)O)n3Cc2ccc(-c3ccc(C(F)(F)F)nc3)cc2)nc1 next.
Data returned: 6.74

Data request: Try COc1ccc(-c2ccc(Cn3c(CC(C)(C)C(=O)O)c(SC(C)(C)C)c4cc(OCc5ccc6ccccc6n5)ccc43)cc2)cn1 next.
Data returned: 6.71

Data request: Try COc1ccc(-c2ccc(Cn3c(CC(C)(C)C(=O)O)c(SC(C)(C)C)c4cc(OCc5cn6ccccc6n5)ccc43)cc2)cn1 next.
Data returned: 6.26

Data request: Try COc1ccc(-c2ccc(Cn3c(CC(C)(C)C(=O)O)c(SC(C)(C)C)c4cc(OCc5ccc(C)c(C)n5)ccc43)cc2)cn1 next.
Data returned: 6.65

Data request: Try CC(C)c1ccc2c(c1)c(SC(C)(C)C)c(CC(C)(C)C(=O)O)n2Cc1ccc(Cl)cc1 next.
Data returned: 5.96

Data request: Try CC(C)(C)Sc1c(CC(C)(C)C(=O)O)n(Cc2ccc(Cl)cc2)c2ccc(OCc3ccc4ccccc4n3)cc12 [QUIFLAPON SODIUM] next.
Data returned: 6.97

Data request: Try Cc1ccc(COc2ccc3c(c2)c(SC(C)(C)C)c(CC(C)(C)C(=O)O)n3Cc2ccc(-c3ccc(C)cn3)cc2)nc1 next.
Data returned: 6.89

Data request: Try CCc1ccc(COc2ccc3c(c2)c(SC(C)(C)C)c(CC(C)(C)C(=O)O)n3Cc2ccc(-c3ccc(OC)nc3)cc2)nc1 next.
Data returned: 5.86

Data request: Try CCOc1ccc(-c2ccc(Cn3c(CC(C)(C)C(=O)O)c(C(=O)CC(C)(C)C)c4cc(OCc5ccc(C)cn5)ccc43)cc2)cn1 next.
Data returned: 5.70
